- target under test: PSG G322A (PSD-95)
- assay info: FP displacement (competition) of FITC-15 AA CRIPT by library peptide, IC50 and Ki
- particulars: read-out: IC50 (µM), PSG G322A; FP displacement of FITC-15 AA CRIPT probe by acetylated PSD library peptide
Ends that are not written are not given here.
For each entry below, report its IC50 value.
Answers are plain numbers, in µM.

Sample answers from the record:
[[record]]
substance = "Ac-YQARRGKKKSGSLVL [RHOA]"
measurement_label = "IC50"
reading = 834

[[record]]
substance = "Ac-YQEQNKVLWIPASPL [DLG5]"
measurement_label = "IC50"
reading = 1510


Each of the following entries comes with a recorded value; kindly state IC50 for each.
1. Ac-YPPSSPTLSVSSTSL [KLH17]
2. Ac-YDVVAVYPNAKVELV [PDLI4]
3. Ac-YLTGAPLATSDETSI [SEM4F]
4. Ac-YQSGPFIWIPSKEKL [DLG2]

[1550, 651, 503, 1420]

----------
Hi there, I'd appreciate the recorded Ki for every entry that follows.
- target under test: PSG G335A (PSD-95)
- assay info: FP displacement (competition) of FITC-15 AA CRIPT by library peptide, IC50 and Ki
- particulars: read-out: Ki (µM), PSG G335A; FP displacement of FITC-15 AA CRIPT probe by acetylated PSD library peptide
One number for each entry, in µM.

[[record]]
compound_structure_string = "CC[C@H](C)[C@H](NC(=O)[C@H](Cc1ccccc1)NC(=O)[C@H](Cc1ccc(O)cc1)NC(=O)[C@@H]1CCCN1C(=O)[C@H](CCC(N)=O)NC(=O)[C@H](Cc1ccc(O)cc1)NC(C)=O)C(=O)N[C@H](C(=O)N[C@@H](CC(N)=O)C(=O)N[C@@H](CO)C(=O)N[C@@H](CCCCN)C(=O)N[C@H](C(=O)N[C@@H](CCC(=O)O)C(=O)N[C@H](C(=O)N[C@H](C(=O)N[C@H](C(=O)O)C(C)C)[C@@H](C)O)C(C)C)[C@@H](C)O)[C@@H](C)O"
target_under_test = "PSG G335A (PSD-95)"
display_unit = "µM"
reading = 404


For every record below, what is its Ki?
1. CC[C@H](C)[C@H](NC(=O)[C@H](CO)NC(=O)[C@H](CCC(N)=O)NC(=O)[C@H](CCCNC(=N)N)NC(=O)[C@H](CCCCN)NC(=O)[C@H](CO)NC(=O)[C@H](CC(=O)O)NC(=O)[C@@H]1CCCN1C(=O)[C@H](Cc1ccc(O)cc1)NC(C)=O)C(=O)N[C@@H](CC(C)C)C(=O)N[C@@H](Cc1ccccc1)C(=O)N[C@@H](CO)C(=O)N[C@H](C(=O)N[C@@H](CCC(=O)O)C(=O)N[C@H](C(=O)O)C(C)C)[C@@H](C)O
2. CC[C@H](C)[C@H](NC(=O)[C@H](CCC(=O)O)NC(=O)[C@H](CCC(=O)O)NC(=O)[C@@H](NC(=O)[C@@H](NC(=O)[C@H](CO)NC(=O)[C@H](CCC(=O)O)NC(=O)[C@H](Cc1ccc(O)cc1)NC(C)=O)[C@@H](C)O)[C@@H](C)O)C(=O)N[C@@H](CCC(=O)O)C(=O)N[C@@H](CC(C)C)C(=O)N[C@@H](CCC(=O)O)C(=O)N[C@@H](CC(=O)O)C(=O)N[C@H](C(=O)N[C@@H](CCC(=O)O)C(=O)N[C@@H](CS)C(=O)O)C(C)C

1: 12; 2: 43

----------
- target under test: PSG G335A (PSD-95)
- assay info: FP displacement (competition) of FITC-15 AA CRIPT by library peptide, IC50 and Ki
- particulars: read-out: IC50 (µM), PSG G335A; FP displacement of FITC-15 AA CRIPT probe by acetylated PSD library peptide
Field: IC50. Provide a value for each of the molecules that follow.
Numbers only, in µM.

[[record]]
molecule = "CC[C@H](C)[C@H](NC(=O)[C@H](CCC(=O)O)NC(=O)[C@H](CCC(=O)O)NC(=O)[C@@H](NC(=O)[C@@H](NC(=O)[C@H](CO)NC(=O)[C@H](CCC(=O)O)NC(=O)[C@H](Cc1ccc(O)cc1)NC(C)=O)[C@@H](C)O)[C@@H](C)O)C(=O)N[C@@H](CCC(=O)O)C(=O)N[C@@H](CC(C)C)C(=O)N[C@@H](CCC(=O)O)C(=O)N[C@@H](CC(=O)O)C(=O)N[C@H](C(=O)N[C@@H](CCC(=O)O)C(=O)N[C@@H](CS)C(=O)O)C(C)C [VSTM5]"
display_unit = "µM"
reading = 120


--- query ---
Kindly indicate its recorded IC50. Item: CC(=O)N[C@@H](Cc1ccc(O)cc1)C(=O)N[C@@H](CO)C(=O)N[C@@H](CC(C)C)C(=O)N[C@@H](CO)C(=O)N[C@@H](CCCCN)C(=O)N[C@@H](Cc1c[nH]cn1)C(=O)N[C@@H](CCC(=O)O)C(=O)N[C@@H](CO)C(=O)N[C@@H](CCC(=O)O)C(=O)N[C@@H](Cc1ccc(O)cc1)C(=O)N[C@@H](CC(N)=O)C(=O)N[C@H](C(=O)N[C@H](C(=O)N[C@@H](CCCNC(=N)N)C(=O)N[C@H](C(=O)O)C(C)C)[C@@H](C)O)[C@@H](C)O [NETO1]
77

----------
Assign Ki to each entry below.
- target under test: PSG G322A (PSD-95)
- assay info: FP displacement (competition) of FITC-15 AA CRIPT by library peptide, IC50 and Ki
- particulars: read-out: Ki (µM), PSG G322A; FP displacement of FITC-15 AA CRIPT probe by acetylated PSD library peptide
One number for each entry, in µM.

Answered cases to consult:
[[record]]
compound_structure_string = "CC[C@H](C)[C@H](NC(=O)[C@H](CO)NC(=O)[C@H](CCC(N)=O)NC(=O)[C@H](CCCNC(=N)N)NC(=O)[C@H](CCCCN)NC(=O)[C@H](CO)NC(=O)[C@H](CC(=O)O)NC(=O)[C@@H]1CCCN1C(=O)[C@H](Cc1ccc(O)cc1)NC(C)=O)C(=O)N[C@@H](CC(C)C)C(=O)N[C@@H](Cc1ccccc1)C(=O)N[C@@H](CO)C(=O)N[C@H](C(=O)N[C@@H](CCC(=O)O)C(=O)N[C@H](C(=O)O)C(C)C)[C@@H](C)O"
reading = 12

[[record]]
compound_structure_string = "CC[C@H](C)[C@H](NC(=O)[C@H](CO)NC(=O)[C@@H](NC(=O)[C@@H](NC(=O)[C@@H]1CCCN1C(=O)[C@H](CC(C)C)NC(=O)[C@H](C)NC(=O)[C@@H]1CCCN1C(=O)[C@H](Cc1ccc(O)cc1)NC(C)=O)[C@@H](C)O)C(C)C)C(=O)N[C@@H](CO)C(=O)N[C@@H](CO)C(=O)N[C@@H](CO)C(=O)N[C@@H](C)C(=O)N[C@@H](CCC(=O)O)C(=O)N[C@H](C(=O)O)C(C)C"
reading = 634


Next compound, Ki to be filled in.
Please report Ki for the following compound: `CC[C@H](C)[C@H](NC(=O)[C@H](Cc1ccc(O)cc1)NC(=O)[C@H](CO)NC(=O)CNC(=O)[C@H](CO)NC(=O)[C@H](CCC(N)=O)NC(=O)[C@H](Cc1ccc(O)cc1)NC(C)=O)C(=O)N[C@@H](Cc1c[nH]c2ccccc12)C(=O)N[C@H](C(=O)N1CCC[C@H]1C(=O)N[C@@H](C)C(=O)N[C@@H](CCCCN)C(=O)N[C@@H](CCC(=O)O)C(=O)N[C@@H](CCCCN)C(=O)N[C@@H](CC(C)C)C(=O)O)C(C)C`
692

----------
- target under test: PSG (PSD-95)
- assay info: FP displacement (competition) of FITC-15 AA CRIPT by library peptide, IC50 and Ki
- particulars: read-out: IC50 (µM), PSG; FP displacement of FITC-15 AA CRIPT probe by PSD library peptide; protein PSG (wild type)
Give measured IC50 for each item. Keep answers brief.
Lab note: write values as number then unit, every time.

Some entries whose results are on file:
[[record]]
compound_structure_string = "CC(=O)N[C@@H](Cc1ccc(O)cc1)C(=O)N[C@@H](CCC(=O)O)C(=O)N[C@@H](CCC(=O)O)C(=O)N[C@@H](CCC(=O)O)C(=O)N[C@@H](CC(C)C)C(=O)N[C@@H](CCC(N)=O)C(=O)N[C@@H](CC(=O)O)C(=O)N[C@@H](CO)C(=O)N[C@@H](CCCNC(=N)N)C(=O)N[C@H](C(=O)N[C@@H](Cc1ccc(O)cc1)C(=O)N[C@H](C(=O)N[C@@H](CO)C(=O)N[C@@H](CO)C(=O)N[C@@H](CC(C)C)C(=O)O)C(C)C)C(C)C"
target_under_test = "PSG (PSD-95)"
reading = "200 µM"

[[record]]
compound_structure_string = "CC(=O)N[C@@H](Cc1ccc(O)cc1)C(=O)N[C@@H](Cc1c[nH]cn1)C(=O)N[C@@H](Cc1c[nH]cn1)C(=O)N[C@H](C(=O)N[C@@H](CO)C(=O)N[C@@H](Cc1ccc(O)cc1)C(=O)N[C@H](C(=O)N[C@@H](C)C(=O)N[C@@H](CO)C(=O)N[C@@H](CCCCN)C(=O)N[C@H](C(=O)N[C@@H](CCC(=O)O)C(=O)N[C@H](C(=O)N[C@H](C(=O)N[C@H](C(=O)O)C(C)C)[C@@H](C)O)C(C)C)[C@@H](C)O)[C@@H](C)O)[C@@H](C)O"
target_under_test = "PSG (PSD-95)"
reading = "1220 µM"


Now look at this entry.
Tell me its IC50 given `CC(=O)N[C@@H](Cc1ccc(O)cc1)C(=O)N[C@@H](CC(C)C)C(=O)N[C@@H](C)C(=O)N[C@@H](CC(=O)O)C(=O)N[C@@H](CCC(=O)O)C(=O)N[C@H](C(=O)N[C@@H](CO)C(=O)N[C@@H](C)C(=O)N[C@@H](CO)C(=O)N[C@@H](CC(C)C)C(=O)N[C@@H](C)C(=O)N[C@@H](CCCCN)C(=O)N[C@@H](CCC(N)=O)C(=O)NCC(=O)N[C@@H](CC(C)C)C(=O)O)C(C)C` as the entry.
2070 µM
